Origin of measurements: PubChem BioAssay (NCI)

Test system: SK-OV-3 ovarian
Experiment: NCI tumour cell line growth inhibition, 48 h
Field: TGI. Provide a value for each of the compounds that follow.

Field: example entries. Status: answers known.
CCSc1cc(C(=O)OC)c2n(c1=O)CCCC2 :: > 100 µM
CC(C)(C)c1ccc(S(=O)(=O)N2C(c3cccc(C4CC[C@@H](C(=O)O)N4S(=O)(=O)c4ccc(C(C)(C)C)cc4)c3)CC[C@H]2C(=O)O)cc1 (stereo not given in full) :: > 100 µM

Value sought for every listed compound: TGI.
1. O=[N+]([O-])c1ccc(OCc2nnc(CCCCCCCCc3nnc(COc4ccc([N+](=O)[O-])cc4)o3)o2)cc1
2. CCN(CC)CCOCCn1c2c(c3ccccc31)CCCC2
3. COc1ccc(N2C(Cl)C(=O)C2c2c[nH]c3ccccc23)cc1 (stereo not given)

Result:
1. > 100 µM
2. 86.3 µM
3. > 100 µM
